system: Wolbachia pipientis; assay: Anti-Wolbachia Cell-Based Screen; format: functional; parameters: scale not given: in the data most compounds retested in dose-response had high values; settings: 5 µM
The whole screen tested about 48,000 compounds, of which about 13,000 (27%) showed an effect of 50% or more. Some of the results follow.
# note: boundary value -30% maps to criterion not met; Percent Effect below it maps to criterion met

compound	className
CNC(=O)CCc1cccc(C2CCCN(c3cc(C)ncn3)C2)n1 (stereo unspecified)	criterion not met
Cc1ccc(C)c(CS(=O)(=O)Cc2ccn(C)c(=O)c2)c1	criterion not met
Cc1cnc(CN(C)C2CCN(CC(=O)Nc3c(C)n[nH]c3C)C2)o1 (stereo unspecified)	criterion not met
COCCOc1ncccc1C(=O)N(C)c1nccs1	criterion met
Cc1n[nH]c(C)c1NC(=O)CN1CCc2c(nc(C3CC3)n2C)C1	criterion not met
CN(C)C(=O)CN1C[C@@H]2CC[C@H](C1)N(Cc1ccccc1OCCO)C2	criterion met
Cc1cc(C)c2nc(CN3CCOCC(O)C3)cc(O)c2c1 (stereo unspecified)	criterion met
Cc1n[nH]c(C)c1NC(=O)CCc1cccc(C2CCCN(C)C2)n1 (stereo unspecified)	criterion not met
Cc1ccc(NC(=O)NC(C)c2nc[nH]n2)s1 (stereo unspecified)	criterion not met
CN1CCCC(c2cccc(CCC(=O)NCc3ccccn3)n2)C1 (stereo unspecified)	criterion not met

----------
system: Wolbachia pipientis; experiment: Anti-Wolbachia Cell-Based Screen; type: functional; parameters: scale not given: in the data most compounds retested in dose-response had high values; settings: 5 µM
Among all 48,000 compounds or so, about 13,000 (27%) showed an effect of 50% or more. The list shows a part of the results.
This listing pairs molecules with measured Percent Effect.

molecule	testedSystem	Percent Effect [%]
CCOc1ncnc2c1CCN(C(=O)CN(C)C)CC2.O=C(O)C(F)(F)F	Wolbachia pipientis	-0.06996
Cc1c(C(C)NC2CCN(C(C)C)CC2)cnn1-c1ccc(F)cc1F (stereo unspecified)	Wolbachia pipientis	-0.2198
Cn1c(CN2CCCC(Cn3cc(CCO)nn3)C2)cc2ccccc21 (stereo unspecified)	Wolbachia pipientis	-3.517
COCCCNC(=O)C1(NC(=O)c2ccc3[nH]ncc3c2)CCCC1	Wolbachia pipientis	-2
O=c1n(CC2COCCO2)nc(CC2CCNCC2)n1-c1ccccc1 (stereo unspecified)	Wolbachia pipientis	28.69
Cc1ccc(C(=O)N2C[C@@H]3CN(S(C)(=O)=O)CCO[C@@H]3C2)o1	Wolbachia pipientis	-11.28
CN1CCN(c2ncccc2CNc2ncccc2C#N)CC1	Wolbachia pipientis	1.331
CN(C)C(=O)CN1C[C@@H]2CC[C@H](C1)N(C/C=C/c1ccc(F)cc1)C2	Wolbachia pipientis	0.7109
C[S+]([O-])c1ccc(NC(=O)CC2=CCCCC2)cc1 (stereo unspecified)	Wolbachia pipientis	-2.422
CCn1ccnc1CN(C)Cc1nc(CCC(C)C)no1	Wolbachia pipientis	-3.993
CS(=O)(=O)N1CCO[C@@H]2CN(C(=O)c3ccnnc3)C[C@@H]2C1	Wolbachia pipientis	110.1

----------
test system: Wolbachia pipientis; assay: Anti-Wolbachia Cell-Based Screen; assay type: functional; set-up: scale not given: in the data most compounds retested in dose-response had high values; details: 5 µM
Among all 48,000 compounds or so, about 13,000 (27%) showed an effect of 50% or more. The list shows a part of the results.
List of Percent Effect values.
reportedEndpoint: Percent Effect (%)

compound	testedSystem	reportedEndpoint	readoutUnit	recordedMeasurement
Cn1ncc2c(=O)[nH]c(CN3CCCC3Cc3ccc(F)cc3)nc21 (stereo unspecified)	Wolbachia pipientis	Percent Effect	%	116
COc1cccc(C2CCCN2Cc2nc3c(cnn3C)c(=O)[nH]2)c1 (stereo unspecified)	Wolbachia pipientis	Percent Effect	%	-3.209
Cn1ncc2c(=O)[nH]c(CN3CCCC3CC3CCCCC3)nc21 (stereo unspecified)	Wolbachia pipientis	Percent Effect	%	-0.1708
Cn1ncc2c(=O)[nH]c(CN3CCCC3CC(C)(C)C)nc21 (stereo unspecified)	Wolbachia pipientis	Percent Effect	%	114.1
Cn1ncc2c(=O)[nH]c(CN3CCCC3CCc3ccccc3)nc21 (stereo unspecified)	Wolbachia pipientis	Percent Effect	%	94.92
Cn1ncc2c(=O)[nH]c(CN3CCC(Cc4ccccc4)CC3)nc21	Wolbachia pipientis	Percent Effect	%	-8.773
